# Tested on: Aβtotal
# test-details: Screening for γ-secretase-modulating activity, Method 2: Aβtotal Alphalisa on SKNBE2 cell supernatant
# Type: cell-based
# condition-description: Method 2, Table 3c, SKNBE2 cells carrying APP 695 wild type, overnight incubation
# Protocol: Screening was carried out using SKNBE2 cells carrying the APP 695—wild type, grown in Dulbecco's Modified Eagle's Medium/Nutrient mixture F-12 (DMEM/NUT-mix F-12) (HAM) provided by Invitrogen (cat no. 10371-029) containing 5% Serum/Fe supplemented with 1% non-essential amino acids, 1-glutamine 2 mM, Hepes 15 mM, penicillin 50 U/ml (units/ml) en streptomycin 50 μg/ml. […] Aβtotal and Aβ42 concentrations were quantified in the cell supernatant using the Aphalisa technology (Perkin Elmer). […]
Some compounds, each annotated with its measured IC50.

See these solved cases before continuing.
Cc1cn(-c2ccc(Nc3cccc4c3nc(-c3ccc(F)cc3)n4C)cn2)cn1 = > 10 µM
COc1cc(Nc2nccc3c2nc(CC2CC2)n3C)ccc1-n1ncnc1C = > 10 µM
CCOc1cccc(-c2nc3c(Nc4ccc(-n5cnc(C)c5)c(F)c4)nc(C)cc3n2C)c1 = 6.46 µM

Incoming: Please report IC50 for the following compound: COc1nc(Nc2cccc3c2nc(-c2ccc(F)c(C(F)(F)F)c2)n3C)ccc1-n1cnc(C)c1
Outgoing: 8.91 µM

Incoming: Please report IC50 for the following compound: CCn1c(CC2CC2)nc2c(Nc3ccc(-n4cnc(C)c4)c(OC)c3)cccc21
Outgoing: 7.41 µM

Incoming: Please report IC50 for the following compound: COc1cc(-c2nc3c(Nc4ccc(-n5cnc(C)c5)c(F)c4)nc(C)cc3n2C)ccc1Cl
Outgoing: > 10 µM

Incoming: Please report IC50 for the following compound: Cc1ncn(-c2ccc(Nc3cccc4c3nc(C)n4Cc3ccccc3)cc2)n1
Outgoing: > 3 µM

Incoming: Please report IC50 for the following compound: COc1nc(Nc2cc(F)cc3c2nc(-c2ccccc2Cl)n3C)ccc1-n1cnc(C)c1
Outgoing: 4.9 µM

Incoming: Please report IC50 for the following compound: COc1nc(Nc2cc(F)cc3c2nc(-c2ccc(F)cc2)n3C)ccc1-n1cnc(C)c1
Outgoing: > 10 µM

Incoming: Please report IC50 for the following compound: COc1nc(Nc2cccc3c2nc(-c2cccc(C(F)(F)F)c2)n3C)ccc1-n1cnc(C)c1
Outgoing: 5.25 µM

Incoming: Please report IC50 for the following compound: COc1nc(Nc2cccc3c2nc(-c2ccccc2F)n3C)ccc1-n1cnc(C)c1
Outgoing: 7.08 µM

Incoming: Please report IC50 for the following compound: COc1cc(Nc2ccnc3c2nc(-c2ccc(F)cc2)n3C)ccc1-n1cnc(C)n1
Outgoing: > 10 µM

Incoming: Please report IC50 for the following compound: COc1cc(Nc2nccc3c2nc(-c2ccccc2C(F)(F)F)n3C)ccc1-n1cnc(C)n1
Outgoing: > 10 µM

Incoming: Please report IC50 for the following compound: COc1nc(Nc2nc(C)cc3c2nc(-c2ccccc2Cl)n3C)ccc1-n1cnc(C)c1
Outgoing: 9.77 µM

Incoming: Please report IC50 for the following compound: Cc1cn(-c2ccc(Nc3nc(C)cc4c3nc(-c3cccnc3)n4C)cc2F)cn1
Outgoing: > 10 µM

Incoming: Please report IC50 for the following compound: Cc1cn(-c2ccc(Nc3cccc4c3nc(-c3ccc(=O)n(C)c3)n4C)cc2F)cn1
Outgoing: > 10 µM

Incoming: Please report IC50 for the following compound: COc1cc(Nc2ccc(-n3cnc(C)c3)c(OC)n2)c2nc(-c3ccc(F)cc3)n(C)c2n1
Outgoing: > 10 µM

Incoming: Please report IC50 for the following compound: COc1ccc(-c2nc3c(Nc4ccc(-n5cnc(C)c5)c(OC)n4)cccc3n2C)cc1
Outgoing: > 10 µM

Incoming: Please report IC50 for the following compound: CCn1c(CCC(F)(F)F)nc2c(Nc3ccc(-n4cnc(C)c4)c(OC)c3)cccc21
Outgoing: > 10 µM

Incoming: Please report IC50 for the following compound: COc1ccc(-c2nc3c(Nc4ccc(-n5cnc(C)c5)c(OC)n4)cccc3n2C)c(C)c1
Outgoing: > 10 µM

Incoming: Please report IC50 for the following compound: COc1nc(Nc2cccc3c2nc(-c2ccc(OC(F)(F)F)cc2)n3C)ccc1-n1cnc(C)c1
Outgoing: > 10 µM

Incoming: Please report IC50 for the following compound: Cc1ncn(-c2ccc(Nc3nccc4c3nc(-c3ccc(F)cc3F)n4C)c(F)c2)n1
Outgoing: > 10 µM

Incoming: Please report IC50 for the following compound: COc1cc(Nc2cccc3oc(C4CCN(C(C)=O)CC4)nc23)ccc1-n1cnc(C)c1
Outgoing: > 10 µM

###

# Tested on: Aβ42
# test-details: Screening for γ-secretase-modulating activity, Method 2: Aβ42 Alphalisa on SKNBE2 cell supernatant
# Format: cell-based
# condition-description: Method 2, Table 3c, SKNBE2 cells carrying APP 695 wild type, overnight incubation
# Description: Screening was carried out using SKNBE2 cells carrying the APP 695—wild type, grown in Dulbecco's Modified Eagle's Medium/Nutrient mixture F-12 (DMEM/NUT-mix F-12) (HAM) provided by Invitrogen (cat no. 10371-029) containing 5% Serum/Fe supplemented with 1% non-essential amino acids, 1-glutamine 2 mM, Hepes 15 mM, penicillin 50 U/ml (units/ml) en streptomycin 50 μg/ml. […] Aβtotal and Aβ42 concentrations were quantified in the cell supernatant using the Aphalisa technology (Perkin Elmer). […]
pIC50: −log10 of the molar value.
property: pIC50

See these solved cases before continuing.
COc1cccc(-c2nc3c(Nc4ccc(-n5cnc(C)n5)c(OC)c4)nc(C)cc3n2C)c1 = 7.54
Cc1cn(-c2ccc(Nc3cccc4c3nc(-c3ccc(=O)n(C)c3)n4C)cc2F)cn1 = 5.41
COc1ccc(-c2nc3c(Nc4ccc(-n5cnc(C)c5)c(OC)n4)cccc3n2C)c(F)c1 = 7.41
COc1nc(Nc2cccc3c2nc(-c2ccc(C(F)(F)F)cc2)n3C)ccc1-n1cnc(C)c1 = 8.10
Cc1ncn(-c2ccc(Nc3cccc4c3nc(-c3ccc(F)cc3)n4C(C)C)cc2)n1.Cl.Cl = 6.54
COc1cc(-c2nc3c(Nc4ccc(-n5cnc(C)c5)c(OC)n4)cccc3n2C)ccc1Cl = 8.30

1. COc1nc(Nc2cccc3c2nc(-c2cccc(F)c2)n3C)ccc1-n1cnc(C)c1
2. COc1nc(Nc2cccc3c2nc(-c2ccc(F)cc2)n3C(C)C)ccc1-n1cnc(C)n1
Incoming: # returns the entry with the larger pIC50; inputs 1 and 2 Answer = label.
Outgoing: 2
(2: 8.30, 1: 7.57)

###

# Test system: Aβtotal
# test-details: Screening for γ-secretase-modulating activity, Method 2: Aβtotal Alphalisa on SKNBE2 cell supernatant
# Format: cell-based
# condition-description: Method 2, Table 3c, SKNBE2 cells carrying APP 695 wild type, overnight incubation
# Method: Screening was carried out using SKNBE2 cells carrying the APP 695—wild type, grown in Dulbecco's Modified Eagle's Medium/Nutrient mixture F-12 (DMEM/NUT-mix F-12) (HAM) provided by Invitrogen (cat no. 10371-029) containing 5% Serum/Fe supplemented with 1% non-essential amino acids, 1-glutamine 2 mM, Hepes 15 mM, penicillin 50 U/ml (units/ml) en streptomycin 50 μg/ml. […] Aβtotal and Aβ42 concentrations were quantified in the cell supernatant using the Aphalisa technology (Perkin Elmer). […]
pIC50: −log10 of the molar value.
property: pIC50

COc1nc(Nc2cccc3c2nc(-c2cccc(OC(F)(F)F)c2)n3C)ccc1-n1cnc(C)c1 = 5.08
COc1nc(Nc2cccc3c2nc(-c2ccccc2OC(F)(F)F)n3C)ccc1-n1cnc(C)c1 = 5.04
COc1nc(Nc2cccc3c2nc(-c2cc(C(F)(F)F)ccc2C)n3C)ccc1-n1cnc(C)c1 = 5.19
COc1nc(Nc2cccc3c2nc(-c2ccc(C(F)(F)F)cc2)n3C)ccc1-n1cnc(C)c1 = 5.11
COc1nc(Nc2cccc3c2nc(-c2cccc(N(C)C)c2)n3C)ccc1-n1cnc(C)c1 = 5.10
Cc1ncn(-c2c(F)cc(Nc3cccc4c3nc(-c3ccc(F)cc3)n4C)cc2F)n1 = 5.09
COc1nc(Nc2cccc3c2nc(-c2ccc(F)cc2)n3C(C)C)ccc1-n1cnc(C)n1 = 5.25
COc1cc(F)cc(-c2nc3c(Nc4ccc(-n5cnc(C)c5)c(OC)n4)cccc3n2C)c1 = 5.08

###

Some compounds, each annotated with its measured IC50.
# System: Aβtotal
# test-details: Screening for γ-secretase-modulating activity, Method 1: Aβtotal sandwich ELISA on SKNBE2 cell media
# Type: cell-based
# condition-description: Table 3a; SKNBE2 cells carrying APP 695 wild type, 18 hours; XLfit, top/bottom fixed to 100 and 0, hill slope 1

See these solved cases before continuing.
CCOc1cc(C)c(Nc2nc3c(Nc4ccc(-n5cnc(C)c5)c(OC)c4)cccc3n2C)cc1C(C)C [Compound 60] = > 1000 nM
COc1cc(Nc2cccc3c2nc(C)n3C(C)C)ccc1-n1cnc(C)n1 [Compound 21] = > 33000 nM

Incoming: Please report IC50 for the following compound: COc1cccc(-c2nc3c(Nc4ccc(-n5cnc(C)n5)cc4)cccc3n2C)c1 [Compound 50]
Outgoing: > 10000 nM

Incoming: Please report IC50 for the following compound: COc1cccc(-c2nc3c(Nc4ccc(-n5cnc(C)c5)c(OC)c4)cccc3n2C)c1 [Compound 49]
Outgoing: > 1000 nM

Incoming: Please report IC50 for the following compound: COc1cc(Nc2cccc3c2nc(CCC(F)(F)F)n3C)ccc1-n1cnc(C)c1 [Compound 34]
Outgoing: > 1000 nM

Incoming: Please report IC50 for the following compound: Cc1ncn(-c2ccc(Nc3cccc4c3nc(C)n4C(C)C)cc2)n1 [Compound 20]
Outgoing: > 3000 nM

Incoming: Please report IC50 for the following compound: COc1cc(-c2nc3c(Nc4ccc(-n5cnc(C)n5)c(OC)c4)cccc3n2C)ccc1Cl [Compound 85]
Outgoing: > 1000 nM

Incoming: Please report IC50 for the following compound: Cc1cn(-c2ccc(Nc3cccc4c3nc(-c3ccc(F)cc3)n4C)cn2)cn1 [Compound 68]
Outgoing: > 1000 nM
